System: HT-29
Assay: Growth inhibition of human HT-29 cells assessed as cell growth at 10^-5 M after 48 hrs by sulforhodamine B assay relative to control
Format: functional
Conditions: HT-29, 48 h, read-out: Activity
observedProperty: growth at 10 µM (%)

> print(dat)
                       structuresmilesstring  measurednumber
 1  CC(=O)N1CCN(C(=O)Cn2c(-c3ccccc3)csc2=N)CC1             101
 2        N=c1scc(-c2ccccc2)n1CC(=O)N1CCOCC1             106
 3  CC(=O)N1CCN(C(=O)Cn2c(-c3ccc(Cl)cc3)csc2=N)CC1            85.8
 4  N=c1scc(-c2ccccc2)n1CC(=O)N1CCN(c2ccccc2)CC1             106
 5  CC(=O)N1CCN(C(=O)Cn2c(-c3ccc(C)cc3)csc2=N)CC1             105
 6    N=c1scc(-c2ccc(Cl)cc2)n1CC(=O)N1CCOCC1            94.2
 7     Cc1ccc(-c2csc(=N)n2CC(=O)N2CCOCC2)cc1             109
 8  Cc1ccc(-c2csc(=N)n2CC(=O)N2CCN(C)CC2)cc1             110
 9  Cc1ccc(-c2csc(=N)n2CC(=O)N2CCN(c3ccccc3)CC2)cc1             111
10     CN1CCN(C(=O)Cn2c(-c3ccccc3)csc2=N)CC1            83.8
11  N=c1scc(-c2ccc(Cl)cc2)n1CC(=O)N1CCN(c2ccccc2)CC1            92.9
12  CN1CCN(C(=O)Cn2c(-c3ccc(Cl)cc3)csc2=N)CC1              96

----------
Test system: PC-3
Assay: Growth inhibition of human PC3 cells assessed as cell growth at 10^-5 M after 48 hrs by sulforhodamine B assay relative to control
Format: functional
Conditions: PC-3, 48 h, read-out: Activity
observedProperty: growth at 10 µM (%)

> print(dat)
                       structuresmilesstring  measurednumber
 1  Cc1ccc(-c2csc(=N)n2CC(=O)N2CCN(c3ccccc3)CC2)cc1            82.1
 2  N=c1scc(-c2ccccc2)n1CC(=O)N1CCN(c2ccccc2)CC1            72.3
 3     CN1CCN(C(=O)Cn2c(-c3ccccc3)csc2=N)CC1            82.1
 4     Cc1ccc(-c2csc(=N)n2CC(=O)N2CCOCC2)cc1            78.9
 5  CC(=O)N1CCN(C(=O)Cn2c(-c3ccccc3)csc2=N)CC1            83.5
 6        N=c1scc(-c2ccccc2)n1CC(=O)N1CCOCC1            81.3
 7  CC(=O)N1CCN(C(=O)Cn2c(-c3ccc(C)cc3)csc2=N)CC1            65.2
 8  N=c1scc(-c2ccc(Cl)cc2)n1CC(=O)N1CCN(c2ccccc2)CC1            81.8
 9  CN1CCN(C(=O)Cn2c(-c3ccc(Cl)cc3)csc2=N)CC1            83.3
10  Cc1ccc(-c2csc(=N)n2CC(=O)N2CCN(C)CC2)cc1            68.4
11  CC(=O)N1CCN(C(=O)Cn2c(-c3ccc(Cl)cc3)csc2=N)CC1            81.6
12    N=c1scc(-c2ccc(Cl)cc2)n1CC(=O)N1CCOCC1            79.2

----------
// values below are reported growth at 10 µM
Tested on: SNB-75
Assay: Growth inhibition of human SNB75 cells assessed as cell growth at 10^-5 M after 48 hrs by sulforhodamine B assay relative to control
Format: functional
Details: SNB-75, 48 h, read-out: Activity
observedProperty: growth at 10 µM (%)

> print(dat)
                      structuresmilesstring  observedproperty  measurednumber
1     CN1CCN(C(=O)Cn2c(-c3ccccc3)csc2=N)CC1   growth at 10 µM            56.5
2        N=c1scc(-c2ccccc2)n1CC(=O)N1CCOCC1   growth at 10 µM            59.4
3  CC(=O)N1CCN(C(=O)Cn2c(-c3ccc(C)cc3)csc2=N)CC1   growth at 10 µM            82.3
4  N=c1scc(-c2ccc(Cl)cc2)n1CC(=O)N1CCN(c2ccccc2)CC1   growth at 10 µM            78.4
5  Cc1ccc(-c2csc(=N)n2CC(=O)N2CCN(c3ccccc3)CC2)cc1   growth at 10 µM            95.8
6  CC(=O)N1CCN(C(=O)Cn2c(-c3ccc(Cl)cc3)csc2=N)CC1   growth at 10 µM            74.4

----------
System: 786-0
Experiment: Growth inhibition of human 786-0 cells assessed as cell growth at 10^-5 M after 48 hrs by sulforhodamine B assay relative to control
Assay type: functional
Settings: 786-0, 48 h, read-out: Activity
observedProperty: growth at 10 µM (%)

> print(dat)
                       structuresmilesstring  measurednumber
 1  Cc1ccc(-c2csc(=N)n2CC(=O)N2CCN(c3ccccc3)CC2)cc1             101
 2  CC(=O)N1CCN(C(=O)Cn2c(-c3ccccc3)csc2=N)CC1             103
 3    N=c1scc(-c2ccc(Cl)cc2)n1CC(=O)N1CCOCC1            95.5
 4  Cc1ccc(-c2csc(=N)n2CC(=O)N2CCN(C)CC2)cc1             101
 5  N=c1scc(-c2ccccc2)n1CC(=O)N1CCN(c2ccccc2)CC1             104
 6  CC(=O)N1CCN(C(=O)Cn2c(-c3ccc(Cl)cc3)csc2=N)CC1            94.4
 7  N=c1scc(-c2ccc(Cl)cc2)n1CC(=O)N1CCN(c2ccccc2)CC1            97.9
 8     CN1CCN(C(=O)Cn2c(-c3ccccc3)csc2=N)CC1             101
 9  CN1CCN(C(=O)Cn2c(-c3ccc(Cl)cc3)csc2=N)CC1              97
10     Cc1ccc(-c2csc(=N)n2CC(=O)N2CCOCC2)cc1            97.9
11        N=c1scc(-c2ccccc2)n1CC(=O)N1CCOCC1             102
12  CC(=O)N1CCN(C(=O)Cn2c(-c3ccc(C)cc3)csc2=N)CC1            98.8

----------
A short record of pKi observed with UniProt P04818 follows.
Sequence (P04818 whole entry): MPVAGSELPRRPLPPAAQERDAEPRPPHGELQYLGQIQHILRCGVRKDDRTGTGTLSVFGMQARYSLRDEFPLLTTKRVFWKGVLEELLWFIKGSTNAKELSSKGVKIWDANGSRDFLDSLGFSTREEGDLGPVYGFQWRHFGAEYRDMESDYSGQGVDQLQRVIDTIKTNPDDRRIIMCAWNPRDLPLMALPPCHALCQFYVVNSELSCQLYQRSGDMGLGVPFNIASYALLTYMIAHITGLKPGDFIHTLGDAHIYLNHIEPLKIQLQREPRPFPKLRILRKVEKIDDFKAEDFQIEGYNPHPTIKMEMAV
pKi: −log10 of the molar value.
observedProperty: pKi

> print(dat)
                       structuresmilesstring  observedproperty  measurednumber
 1        N=c1scc(-c2ccccc2)n1CC(=O)N1CCOCC1               pKi            5.21
 2    N=c1scc(-c2ccc(Cl)cc2)n1CC(=O)N1CCOCC1               pKi            5.43
 3  N=c1scc(-c2ccc(Cl)cc2)n1CC(=O)N1CCN(c2ccccc2)CC1               pKi            5.29
 4  Cc1ccc(-c2csc(=N)n2CC(=O)N2CCN(C)CC2)cc1               pKi            4.72
 5  CC(=O)N1CCN(C(=O)Cn2c(-c3ccc(Cl)cc3)csc2=N)CC1               pKi            4.95
 6  Cc1ccc(-c2csc(=N)n2CC(=O)N2CCN(c3ccccc3)CC2)cc1               pKi            5.25
 7  N=c1scc(-c2ccccc2)n1CC(=O)N1CCN(c2ccccc2)CC1               pKi            5.87
 8     CN1CCN(C(=O)Cn2c(-c3ccccc3)csc2=N)CC1               pKi            5.94
 9  CC(=O)N1CCN(C(=O)Cn2c(-c3ccc(C)cc3)csc2=N)CC1               pKi            5.44
10     Cc1ccc(-c2csc(=N)n2CC(=O)N2CCOCC2)cc1               pKi            5.39
11  CC(=O)N1CCN(C(=O)Cn2c(-c3ccccc3)csc2=N)CC1               pKi            4.96
12  CN1CCN(C(=O)Cn2c(-c3ccc(Cl)cc3)csc2=N)CC1               pKi            6.47

----------
System: MDA-MB-231
Experiment: Growth inhibition of human MDA-MB-231 cells assessed as cell growth at 10^-5 M after 48 hrs by sulforhodamine B assay relative to control
Format: functional
Details: MDA-MB-231, 48 h, read-out: Activity
observedProperty: growth at 10 µM (%)

> print(dat)
                      structuresmilesstring  testsystem  observedproperty  measurednumber
1  CC(=O)N1CCN(C(=O)Cn2c(-c3ccc(C)cc3)csc2=N)CC1  MDA-MB-231   growth at 10 µM            75.3
2     Cc1ccc(-c2csc(=N)n2CC(=O)N2CCOCC2)cc1  MDA-MB-231   growth at 10 µM            98.4
3        N=c1scc(-c2ccccc2)n1CC(=O)N1CCOCC1  MDA-MB-231   growth at 10 µM            95.1
4  CC(=O)N1CCN(C(=O)Cn2c(-c3ccccc3)csc2=N)CC1  MDA-MB-231   growth at 10 µM            95.4
5  Cc1ccc(-c2csc(=N)n2CC(=O)N2CCN(c3ccccc3)CC2)cc1  MDA-MB-231   growth at 10 µM            78.8
6  CC(=O)N1CCN(C(=O)Cn2c(-c3ccc(Cl)cc3)csc2=N)CC1  MDA-MB-231   growth at 10 µM             111
